Tgt: Toll-like receptor 8 (Homo sapiens) (UniProt Q9NR97)
Sequence (Q9NR97 whole entry): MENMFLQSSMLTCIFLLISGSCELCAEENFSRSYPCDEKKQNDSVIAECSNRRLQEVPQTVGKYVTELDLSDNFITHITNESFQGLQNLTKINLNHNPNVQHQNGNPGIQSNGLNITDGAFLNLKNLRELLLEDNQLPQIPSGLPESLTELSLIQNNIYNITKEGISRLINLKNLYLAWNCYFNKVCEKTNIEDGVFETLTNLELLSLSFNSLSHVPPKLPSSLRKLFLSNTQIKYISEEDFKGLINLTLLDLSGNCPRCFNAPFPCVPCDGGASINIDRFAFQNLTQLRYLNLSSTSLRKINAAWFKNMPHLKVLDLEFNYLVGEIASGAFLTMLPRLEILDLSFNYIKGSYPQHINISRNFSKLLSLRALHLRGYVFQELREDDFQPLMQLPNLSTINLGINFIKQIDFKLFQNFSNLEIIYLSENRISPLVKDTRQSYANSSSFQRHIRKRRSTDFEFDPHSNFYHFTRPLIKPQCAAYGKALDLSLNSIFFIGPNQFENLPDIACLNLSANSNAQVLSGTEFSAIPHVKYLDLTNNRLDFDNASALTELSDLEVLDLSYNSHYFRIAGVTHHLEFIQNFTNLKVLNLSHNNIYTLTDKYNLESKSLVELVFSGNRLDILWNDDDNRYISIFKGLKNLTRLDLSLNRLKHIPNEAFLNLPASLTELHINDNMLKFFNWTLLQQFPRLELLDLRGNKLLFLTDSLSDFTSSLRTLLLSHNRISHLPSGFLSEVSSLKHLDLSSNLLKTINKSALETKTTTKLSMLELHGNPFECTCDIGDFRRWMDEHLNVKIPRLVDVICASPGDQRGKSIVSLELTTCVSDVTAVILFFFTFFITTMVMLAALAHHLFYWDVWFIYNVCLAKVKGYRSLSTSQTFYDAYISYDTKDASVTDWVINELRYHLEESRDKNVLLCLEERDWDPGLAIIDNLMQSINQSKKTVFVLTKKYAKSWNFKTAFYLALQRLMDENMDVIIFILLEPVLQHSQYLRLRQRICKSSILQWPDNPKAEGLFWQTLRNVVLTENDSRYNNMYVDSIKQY
Protocol summary: Agonist activity at TLR8 in human PBMC assessed as TNFalpha level
Format: cell-based
Please go through the items and note down their MEC.
Kindly answer with a numeric value in µM, unit omitted.

Quote Toll-like receptor 8 (Homo sapiens) (UniProt Q9NR97) MEC for entry `CCOCc1nc2c(N)nc3ccccc3c2n1CC(C)(C)O` .
2

Please indicate recorded MEC of `CCC[C@H](C)Oc1nc(N)c2[nH]c(=O)n(CC3CCN(CCO)CC3)c2n1` measured with Toll-like receptor 8 (Homo sapiens) (UniProt Q9NR97).
2

# assay system Toll-like receptor 8 (Homo sapiens) (UniProt Q9NR97): give MEC of `COCCOc1nc(N)c2[nH]c(=O)n(Cc3ccccc3)c2n1`
2

Would you please give the reported MEC of `CCCCOc1nc(N)c2[nH]c(=O)n(CC3CCN(CCO)CC3)c2n1` with Toll-like receptor 8 (Homo sapiens) (UniProt Q9NR97)?
10
